test_details: Muscle versus plasma concentration, muscle biopsy data from Phase 1 multiple ascending dose (MAD) study
Assay type: in vivo, human
experimental_parameters: human, muscle; read-out: Enrichment in muscle compared to plasma
recorded_endpoint: Kp

Enquiry: So what's the measured Kp for this one? O=c1ccc(-c2cnc(OCC(F)(F)F)nc2)nn1Cc1cncc(F)c1
Return: ~60
